// data source = patent US11414450B1

- System: E. coli efflux parent
- MEASUREMENT DESCRIPTION: MIC broth microdilution, E. coli efflux parent strain
- Format: cell-based
- SETTINGS: Table 2; geometric mean
Geometric Mean MIC values, E. coli efflux parent vs 1 µg/mL: less than gives Satisfied; not less than gives Not satisfied.

Example cases with answers are listed next.
NCC1OC(OC2C(CO)OC(OC3C(O)C(N)CC(N)C3OC3OC(CN)C(O)C(F)C3N)C2O)C(N)C(O)C1O (centres unmarked) [drawing 868]; Not satisfied
NCC1OC(OC2C(CO)OC(OC3C(O)C(N)CC(N)C3OC3OC(CN)C(F)(F)C(O)C3N)C2O)C(N)C(O)C1O (centres unmarked); Not satisfied
NCC1OC(OC2C(CO)OC(OC3C(O)C(N)CC(N)C3OC3OC(CN)C(O)C(F)C3O)C2O)C(N)C(O)C1O (centres unmarked) [drawing 867]; Not satisfied
CCC(N)C1CCC(N)C(OC2C(N)CC(N)C(O)C2OC2OC(CO)C(OC3OC(CN)C(O)C(O)C3N)C2O)O1 (centres unmarked) [drawing 860]; Not satisfied

Next compound, please.
Ask: Hello, is Geometric Mean MIC values, E. coli efflux parent of the following compound strictly smaller than 1 µg/mL? NC[C@@H]1O[C@H](O[C@H]2[C@@H](O)[C@H](O[C@@H]3[C@@H](O)[C@H](N)C[C@H](N)[C@H]3O[C@H]3O[C@H](CN)[C@@H](O)[C@H](O)[C@H]3N)O[C@@H]2CO)[C@H](N)[C@@H](O)[C@@H]1O [NEO, neomycin B, reference compound]
Result: Satisfied
